The compounds listed here are annotated with their GI50.
- Tested on: IGROV-1
- Protocol description: NCI tumour cell line growth inhibition, 48 h
Active and inactive are the calls of the source. No stated cut-off is given here; in the data, active = GI50 up to about 1.1 µM and inactive = higher.

Take a look at these entries with their results.
O=C1c2ccccc2/C=C\C(c2ccccc2)=N/N1c1ccccc1Cl :: 29.4 µM (inactive)
CCOP(=O)(/C=C\n1cnc2c(=O)n(C(C)=O)c(N)nc21)OCC :: > 100 µM (inactive)
O=C1OC(c2ccccc2)=N/C1=C\c1ccc(Cl)cc1 :: > 100 µM (inactive)
O=Cc1cc(C(=O)OCc2ccccc2)n(S(=O)(=O)c2ccccc2)c1 :: 25.9 µM (inactive)
COc1ccc2c(c1)[n+]([O-])c(/C(C)=N/NC(=O)c1ccccc1O)c(C)[n+]2[O-] :: > 100 µM (inactive)

Exercise: Look up GI50: CC(C)Cn1cnc2c(NCC(C)O)nc3ccccc3c21 (stereo not drawn)
Key: 36.8 µM (inactive)

Exercise: Look up GI50: COc1ccc(/C=C(\NC(=O)c2ccccc2)c2nc3ccccc3[nH]2)cc1
Key: 30.5 µM (inactive)

Exercise: Look up GI50: O=C(O)CCNS(=O)(=O)c1ccc([N+](=O)[O-])cc1
Key: > 100 µM (inactive)

###

- System: U-251
- Protocol description: NCI tumour cell line growth inhibition, 48 h
Activity calls are given as the source filed them. Cut-off read from the data, not from the text of the source: active = GI50 up to about 1.1 µM and inactive = higher.
Readout kind: GI50

CCN(CC)CCC(=O)c1ccc(Sc2ccc(F)cc2)cc1 :: 16 µM (inactive)

Exercise: Look up GI50: Cc1cccc(/C=N/NC(=S)Nc2ccc(Cl)cc2)n1
Key: 2.19 µM (inactive)

Exercise: Look up GI50: CN(C)c1c(C2CC(O)C(CO)O2)c(=O)c1=O (stereo not given)
Key: > 100 µM (inactive)

Exercise: Look up GI50: CC1(C)c2ccccc2C(=O)C12CCC(=O)CC2
Key: > 100 µM (inactive)

Exercise: Look up GI50: CCOP(=O)(Nc1ccccc1P(=O)(OCC)OCC)OCC
Key: > 100 µM (inactive)

###

- System: ACHN
- Protocol description: NCI tumour cell line growth inhibition, 48 h
Activity calls are given as the source filed them. Rule as the data show it: active = GI50 up to about 1.1 µM and inactive = higher.
The molecules listed here are annotated with their GI50.

O=[N+]([O-])/C(C(Cl)=C(Cl)Cl)=C(\Nc1cccc2cccnc12)Sc1ccccc1 :: 22.8 µM (inactive)
O=c1[nH]c(=O)n(COCc2ccccc2)c2ccc(Br)cc12 :: 27.5 µM (inactive)
Clc1ccc(-c2nc3cc(C45CC6CC(CC(C6)C4)C5)ccc3[nH]2)cc1 :: 51.8 µM (inactive)
O=S1(=O)c2cnccc2N=C(NCc2ccccc2)N1c1ccccc1 :: 36.7 µM (inactive)

Could you now look at the following molecule, please?
Exercise: Look up GI50: COC1=CC(=O)C2C(C1=O)C(c1ccc(Cl)cc1)[C@@H]2C (stereo not given in full)
Key: 17.3 µM (inactive)

###

- System: HL-60
- Protocol description: NCI tumour cell line growth inhibition, 48 h
The source made the active and inactive calls. No stated cut-off is given here; in the data, active = GI50 up to about 1.1 µM and inactive = higher.
Readout kind: GI50

Take a look at these entries with their results.
Cc1cc(C)c2c(-c3ccccc3)cc(=O)[nH]c2c1 :: > 100 µM (inactive)
COC(=O)n1c(C[P+](c2ccccc2)(c2ccccc2)c2ccccc2)cc2ccccc21 :: 0.869 µM (active)
C=C1c2[nH]c3c([N+](=O)[O-])c(OC)ccc3c2CCN1C(C)=O :: > 100 µM (inactive)

Exercise: Look up GI50: CC#C[P+](c1ccccc1)(c1ccccc1)c1ccccc1
Key: 3.71 µM (inactive)

Exercise: Look up GI50: CCOc1cc(NC(C)=O)ccc1C(=O)NN1C(=O)C(Cl)C1c1ccco1 (centres undefined)
Key: 18.4 µM (inactive)

Exercise: Look up GI50: CC(C)=CCc1cc(/C=C/C(=O)O)cc(CC=C(C)C)c1O [ARTEPILLIN]
Key: > 100 µM (inactive)

Exercise: Look up GI50: CCNC(=S)Nc1c(C#N)c2n(c1C(=O)OCC)CCCCC2
Key: > 100 µM (inactive)

Exercise: Look up GI50: CCCNC(=O)CCC(C)[C@H]1CCC2C3C(C[C@H](OC(C)=O)[C@@]21C)[C@@]1(C)CCC2(C[C@H]1C[C@H]3OC(C)=O)OOC1(CCC(C)CC1)OO2 (some centres undefined)
Key: 13.1 µM (inactive)

Exercise: Look up GI50: O=C1NC(c2cccc3ccccc23)Nc2ccc(Cl)cc21 (centres undefined)
Key: 0.000133 µM (active)

###

- Test system: SF-539
- Protocol description: NCI tumour cell line growth inhibition, 48 h
Activity calls are given as the source filed them. No stated cut-off is given here; in the data, active = GI50 up to about 1.1 µM and inactive = higher. Peptide text beside a SMILES is read from it. * marks the point of attachment. Boc = CC(C)(C)OC(=O)*
Pick one and only one: Yes for active, No for inactive

Use the examples below as a reference point.
O=C1CSC(c2ccccc2O)N1c1nc2cc3sc(N4C(=O)CSC4c4ccccc4O)nc3cc2s1 (stereo not drawn) :: No
CCOP(=O)(OCC)OC1CC(n2cnc3c(N(CC)CC)ncnc32)OC1CO[Si](C)(C)C(C)(C)C (stereo not drawn) :: No
C[N+](C)(C)c1nc(N)nc2c1ncn2C1OC(CO)C(O)C1O (stereo not drawn) :: No
Cc1c(-c2ccc(O)cc2)n(CCCCCCNCCOC(=O)NCCCc2ccc(N(CCCl)CCCl)cc2)c2ccc(O)cc12 :: No
S=P(c1ccccc1)(c1ccccc1)C1(C2(P(=S)(c3ccccc3)c3ccccc3)CC2)CC1 :: No
Cc1cccc(/C=N/NC(=S)Nc2ccc(Cl)cc2)n1 :: No

Exercise: Please state the recorded outcome for this compound: O=[N+]([O-])/C(Cl)=C/C(=C1/Nc2ccccc2O1)[N+](=O)[O-]
Key: No

Exercise: Please state the recorded outcome for this compound: COc1ccc([C@@]23OC[C@@H]4[C@@H](OC[C@@H]42)c2cc(OC)c(OC)cc23)cc1OC
Key: No

Exercise: Please state the recorded outcome for this compound: CCCCCCCc1ccc(-c2nnc(/N=N/c3ccc(OCCCCC)cc3)s2)s1
Key: No

Exercise: Please state the recorded outcome for this compound: CCCc1cn2c(/C=N/NC(=N)N)c(-c3cc([N+](=O)[O-])c(Cl)cc3Cl)nc2s1
Key: No

Exercise: Please state the recorded outcome for this compound: COc1cccc2c1C(=O)c1c(O)c3c(c(O)c1C2=O)C[C@@](O)(/C(C)=N/NC(=O)c1ccc(Cl)c(Cl)c1)C[C@@H]3OC1CC(N)C(O)C(C)O1 (stereo partly drawn)
Key: Yes

Exercise: Please state the recorded outcome for this compound: Brc1ccccc2cc(-c3ccccc3)nc1-2
Key: No

Exercise: Please state the recorded outcome for this compound: CSCCC(NC(=O)C(CC(C)C)NC(=O)CNC(=O)OC(C)(C)C)C(=O)N(C)C (stereo not drawn) (Boc-Gly-Leu-Met-NMe2; configuration not given here)
Key: No

Exercise: Please state the recorded outcome for this compound: CN(C)c1c(C2CC(O)C(CO)O2)c(=O)c1=O (stereo not drawn)
Key: No

Exercise: Please state the recorded outcome for this compound: CN(C)CC1CN(C(=O)Nc2ccccc2)C(=N)O1 (stereo not drawn)
Key: No

Exercise: Please state the recorded outcome for this compound: c1ccc2c(c1)cc1c3[nH]c4ccccc4c3ccn21
Key: No

Exercise: Please state the recorded outcome for this compound: CC(C)(C)OC(=O)CC(NC(=O)OC(C)(C)C)C(=O)N[C@@H]1CCCC[C@H]1C(=O)OCc1ccccc1 (stereo partly drawn)
Key: No

Exercise: Please state the recorded outcome for this compound: C=CCC1([C@H](C)[C@@H](OC(C)=O)c2cc(OC)c(OC)c(OC)c2)C[C@@H](OC)CCC1=O (stereo partly drawn)
Key: No

###

The compounds listed here are annotated with their GI50.
- Tested on: Hs-578T
- Protocol description: NCI tumour cell line growth inhibition, 48 h
Active and inactive are the calls of the source. No stated cut-off is given here; in the data, active = GI50 up to about 1.1 µM and inactive = higher.

Take a look at these entries with their results.
O=c1oc2ccccc2c(Nc2ccc3c(c2)S(=O)(=O)c2ccccc2O3)c1[N+](=O)[O-] :: 36.7 µM (inactive)
Nc1ncnc2c1nc(Cl)n2C1OC(CO)C(O)C1O (configuration not stated) :: 15.3 µM (inactive)

Exercise: Look up GI50: NS(=O)(=O)c1ccc(NC(=O)N/N=C/c2ccccc2O)cc1
Key: 60.5 µM (inactive)

Exercise: Look up GI50: CCOC(=O)c1c(N2CCOCC2)[nH]c(=O)c(C(c2ccc(Cl)c([N+](=O)[O-])c2)c2c(O)c(C(=O)OCC)c(N3CCOCC3)[nH]c2=O)c1O
Key: > 100 µM (inactive)

Exercise: Look up GI50: CC12CC3c4ccccc4CN1C3(c1ccccc1)OC2=O (configuration not stated)
Key: > 100 µM (inactive)

Exercise: Look up GI50: Cc1ccc(/C=N/NC2=NCCN2)s1
Key: > 100 µM (inactive)

Exercise: Look up GI50: Cn1c(SCc2ccc([N+](=O)[O-])cc2)nnc1C12CC3CC(CC(C3)C1)C2
Key: > 10 µM (inactive)

Exercise: Look up GI50: Cc1nnc2sc(NN)nn12
Key: > 100 µM (inactive)

Exercise: Look up GI50: O=c1cnn(C2OC(CO)C(O)C2O)c(=S)[nH]1 (configuration not stated)
Key: > 100 µM (inactive)

Exercise: Look up GI50: O=C1C(N2CCCC2)=CC(=O)c2c(O)c(N3CCCC3)c(Cl)c(O)c21
Key: > 10 µM (inactive)

Exercise: Look up GI50: OC(c1cccnc1)C(F)(F)c1nc2ccccc2o1 (configuration not stated)
Key: > 100 µM (inactive)

Exercise: Look up GI50: CN(CCNCc1cn(C)c2c1ccc1ccccc12)CCNCc1cn(C)c2c1ccc1ccccc12
Key: 1.64 µM (inactive)

Data origin: ChEMBL document CHEMBL1201862
